Target: Abf1 (UniProt P14164)
Sequence: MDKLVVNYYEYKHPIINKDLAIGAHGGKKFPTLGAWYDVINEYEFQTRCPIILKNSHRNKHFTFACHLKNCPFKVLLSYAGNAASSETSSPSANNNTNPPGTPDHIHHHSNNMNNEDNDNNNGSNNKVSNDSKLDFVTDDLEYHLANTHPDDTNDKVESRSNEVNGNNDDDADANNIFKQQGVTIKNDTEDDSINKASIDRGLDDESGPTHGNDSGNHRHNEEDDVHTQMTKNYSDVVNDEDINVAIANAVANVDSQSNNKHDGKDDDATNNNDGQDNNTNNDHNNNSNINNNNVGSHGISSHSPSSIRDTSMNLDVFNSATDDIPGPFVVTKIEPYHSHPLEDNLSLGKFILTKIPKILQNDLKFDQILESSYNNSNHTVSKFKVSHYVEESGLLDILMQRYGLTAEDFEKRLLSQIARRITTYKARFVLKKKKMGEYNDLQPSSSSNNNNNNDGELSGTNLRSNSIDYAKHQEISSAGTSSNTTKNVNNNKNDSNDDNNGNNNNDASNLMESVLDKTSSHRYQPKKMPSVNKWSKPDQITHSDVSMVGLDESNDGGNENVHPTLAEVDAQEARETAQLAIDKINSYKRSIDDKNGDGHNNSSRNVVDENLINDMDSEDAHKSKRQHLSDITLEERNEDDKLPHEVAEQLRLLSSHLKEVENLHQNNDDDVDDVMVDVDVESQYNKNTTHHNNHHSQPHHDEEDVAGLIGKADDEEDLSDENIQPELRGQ
Assay: PBM E-score (8-mer binding enrichment) (E-score (-0.5 to 0.5)); higher = stronger / more preferred TF binding
Conditions: protein concentration: 200 nM; construct: GST-full length
Whole data set: some 33,000 sequences, median “E-score (-0.5 to 0.5)” near -0.015, cut for the highest 2% near 0.3. This is one part of a sample in which the highest values are shown more often than they occur.
The threshold is inclusive: PBM E-score of exactly 0.1 counts as y; values below receive n.

AATCGTGA; y
AGCGTACA; n
ACCGTAAG; y
CTAGTGAA; n
TGCGTACA; n
ATAACGGG; n
AGACGAAA; y
ACGTAGAA; y
AATCGTGC; y
GCCGTTGA; y
AACGTACG; y
CATCCGGG; n
CGACGAGA; y
ACCGTACG; y
AGGCGGAT; n
ACACTCGA; n
ATGGCTAA; n
AGGCTCTA; n
ATTCTGTA; y
CACGGTTC; y
GAGAGGCA; n
CCGCCATA; n
CGACGTGA; y
CAACGAAA; y
ATGAAGAG; n
GCTATGCA; n
AGTGTCAC; y
CGAATTCC; n
CGACGATA; y
CGGGTTAG; n
AGAGGGTC; n
CGACGTCA; y

###

Target: Abf1 (UniProt P14164)
Sequence: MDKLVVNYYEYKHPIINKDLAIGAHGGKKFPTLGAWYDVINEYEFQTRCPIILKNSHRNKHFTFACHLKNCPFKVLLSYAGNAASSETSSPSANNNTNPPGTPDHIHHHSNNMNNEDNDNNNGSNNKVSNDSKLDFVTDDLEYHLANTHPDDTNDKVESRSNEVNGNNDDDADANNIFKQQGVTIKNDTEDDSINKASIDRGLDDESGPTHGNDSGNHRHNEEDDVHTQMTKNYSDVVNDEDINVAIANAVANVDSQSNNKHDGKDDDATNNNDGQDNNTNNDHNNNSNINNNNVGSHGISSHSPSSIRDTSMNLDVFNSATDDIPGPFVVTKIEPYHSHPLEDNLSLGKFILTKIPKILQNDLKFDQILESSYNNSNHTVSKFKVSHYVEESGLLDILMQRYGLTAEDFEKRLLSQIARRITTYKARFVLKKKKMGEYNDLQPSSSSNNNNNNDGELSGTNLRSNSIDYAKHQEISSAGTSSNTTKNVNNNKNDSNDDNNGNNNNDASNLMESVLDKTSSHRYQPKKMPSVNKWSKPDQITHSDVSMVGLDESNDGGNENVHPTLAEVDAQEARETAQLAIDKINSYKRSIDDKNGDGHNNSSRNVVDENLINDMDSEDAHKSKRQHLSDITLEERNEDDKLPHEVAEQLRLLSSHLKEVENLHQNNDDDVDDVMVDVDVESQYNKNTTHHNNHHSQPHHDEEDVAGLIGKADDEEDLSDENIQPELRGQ
Experiment: PBM E-score (8-mer binding enrichment) (E-score (-0.5 to 0.5)); higher = stronger / more preferred TF binding
Conditions: protein concentration: 200 nM; construct: GST-full length
Over roughly 33,000 sequences, “E-score (-0.5 to 0.5)” has its median near -0.015; the highest 2% begin near 0.3. Only a selection was taken, and the highest values are over-represented in it overall.
The threshold is inclusive: PBM E-score of exactly 0.1 counts as Y; values below receive N.

GCGAAGAA; Y
TCAGGACA; Y
AGTCACTC; Y
ACTGGTAT; N
CTGCCGAC; N
AGTATAAA; Y
GATGATCC; N
AAGATGAG; N
AGGTATAG; N
CCGAAGGA; N
TATCGTCA; Y
AAAATCCC; N
CGGATATA; Y
CATCGTCC; Y
CGTATCAA; Y
CCCGGAAC; N
AAAGTGGC; N
ACAGTGAC; Y
AGGGTGAT; Y
ACCCCCGT; N
ACTCCTGC; N
AATGATCT; Y
ACAGGTCA; N
CACGTCTA; Y
ACGATGAA; Y
CTTCTTTA; Y
CGTCACGA; Y
TCCGACCA; N
AATCGTCC; Y
GGTGACGA; Y
CAAGGAAA; N
AAAGATCA; Y
AGACCCCG; N
ACTCTGTG; N
GCTGAGGA; N
AAGGTCGC; N
AACGTGAA; N
CGTCACGC; Y
CTATGGGA; N
ACGATGAC; Y
CAGTACCC; N
AGGCCCTA; N
CAAGATCA; Y
TGTATAAA; Y
TCTGATCA; Y
ATGTCGGG; N
GCGTGGCA; N
AAACGAAG; Y
AAAGTGAG; Y
AGTCACTG; N
GCAGAACA; N
CCATCGCA; N
CACAAAGA; N
ACGAAGGA; N
TATCGTGA; Y
CGCACCAA; N
ACTGATCT; N
CCGACAGA; N
ATTAAGCC; N
ATAGATAC; N
GGTCCTGA; N
CATAAGTC; N
CGAACCAA; N
AGGGTGAA; N
AATCGTCT; Y
AACGGACC; N
AATGAACT; N
CGTATAAC; Y

###

Molecular target: Abf1 (UniProt P14164)
Sequence: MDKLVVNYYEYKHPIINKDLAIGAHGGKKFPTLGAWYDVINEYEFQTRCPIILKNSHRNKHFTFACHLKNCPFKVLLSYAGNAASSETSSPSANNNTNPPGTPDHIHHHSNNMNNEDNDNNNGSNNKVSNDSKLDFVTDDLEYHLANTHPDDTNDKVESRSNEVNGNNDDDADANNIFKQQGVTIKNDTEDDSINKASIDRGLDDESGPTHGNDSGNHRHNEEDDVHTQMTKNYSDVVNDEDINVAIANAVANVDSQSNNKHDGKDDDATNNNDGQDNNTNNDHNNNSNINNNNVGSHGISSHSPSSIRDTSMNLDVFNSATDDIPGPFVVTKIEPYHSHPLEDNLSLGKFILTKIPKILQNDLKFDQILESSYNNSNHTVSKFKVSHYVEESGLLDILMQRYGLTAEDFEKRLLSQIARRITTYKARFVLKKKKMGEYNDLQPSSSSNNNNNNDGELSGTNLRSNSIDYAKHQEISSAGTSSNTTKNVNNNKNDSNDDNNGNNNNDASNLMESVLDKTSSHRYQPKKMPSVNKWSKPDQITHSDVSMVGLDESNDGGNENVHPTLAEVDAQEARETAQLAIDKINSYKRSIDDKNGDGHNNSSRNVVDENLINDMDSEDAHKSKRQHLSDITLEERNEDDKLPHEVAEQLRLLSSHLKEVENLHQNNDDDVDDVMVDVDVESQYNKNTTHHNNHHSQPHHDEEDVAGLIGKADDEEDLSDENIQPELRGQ
Test: PBM E-score (8-mer binding enrichment) (E-score (-0.5 to 0.5)); higher = stronger / more preferred TF binding
Conditions: protein concentration: 200 nM; construct: GST-full length
Over roughly 33,000 sequences, “E-score (-0.5 to 0.5)” has its median near -0.015; the highest 2% begin near 0.3. The sample holds the highest values, similar sequences and a random draw of the others, so the mix is not that of the screen.
assay_readout: PBM E-score

ATTATCAG; 0.0821
CGTACGTA; 0.266
AAAATGAC; 0.297
GCGATAAA; 0.241
ATCGTAGA; 0.28
AGATGCCC; -0.144
ACCTAACC; 0.0492
AACGACGA; 0.346
GTCGTGCA; 0.374
CCTACGCC; -0.0667
ATGATCAC; 0.335
CTTATCAA; 0.164
ACTGCGAT; -0.0827
CGTACGTC; 0.359
GATCCAAA; 0.111
AGTACGTC; 0.125
ATAATGAG; 0.117
GGTACGGA; 0.13
GAAATTCA; 0.0636
CTGTCACA; 0.138
CACCCGCA; -0.205
ATAATTAT; 0.303
AAGATCGC; 0.169
AACAAATT; 0.201
GAGAATAA; 0.034
CAAGCCCG; -0.172
CTTATCAC; 0.369
ATGTCACC; 0.429
GGTCCCAA; -0.136
ATGTCACG; 0.437
AAATGGGT; -0.0572
AGTACGGA; 0.118
TTGACAAA; 0.182
GGCTTTAC; -0.225
AAGATCGG; -0.163
CTGATCAA; -0.114
ATGTCACA; 0.282
CTCGTGCA; 0.124
CAGACCTC; 0.00051
ATAATTAA; 0.274
GTGATCAA; 0.392
ATGACAAA; 0.338
